# TARGET DESC: Murine Cathepsin S (Mus musculus, UniProt O70370)
# METHOD: Ki competitive inhibition, murine cathepsin S
# Type: biochemical
# STUDY CONDITIONS: read-out: Ki murine cath S
PROPERTY: Ki (nM)
Quick reminder: number only, in nM, skip the unit.

Recorded Ki of CC[C@@H]1OCC(=O)[C@H]1NC(=O)[C@H](CC(C)(C)C(C)C)NC(=O)c1ccoc1 [CAP8-Hybrid3/drawing 68] , please.
149

----------
# TARGET DESC: Mammalian Cathepsin S (Homo sapiens)
# Sequence (P25774 115-331): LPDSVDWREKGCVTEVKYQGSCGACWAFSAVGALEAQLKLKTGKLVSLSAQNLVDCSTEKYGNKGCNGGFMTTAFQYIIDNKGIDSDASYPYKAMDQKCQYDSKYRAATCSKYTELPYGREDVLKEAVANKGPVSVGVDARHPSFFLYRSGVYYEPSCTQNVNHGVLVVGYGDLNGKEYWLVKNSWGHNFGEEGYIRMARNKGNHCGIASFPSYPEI
# METHOD: Ki competitive inhibition, mammalian cathepsin S
# Format: biochemical
# STUDY CONDITIONS: read-out: Ki mammalian cath S
PROPERTY: Ki
Write down the value, and be sure its unit follows.

Returns the measured Ki for the input molecule. Input: CC[C@@H]1OCC(=O)[C@H]1NC(=O)[C@H](CC(C)(C)C(C)C)NC(=O)c1ccoc1 [CAP8-Hybrid3/drawing 68]
15 nM
